Hi, quick share: literature pIC50 data for human HIF-PHD2 (Homo sapiens, UniProt Q9GZT9), several sources combined.
pIC50: −log10 of the molar value.
quantityMeasured: pIC50

>  <compound>
CC1(C)C(=O)C(C(=O)NCC(=O)O)=C(O)c2c(Cl)cccc21

>  <target>
human HIF-PHD2 (Homo sapiens, UniProt Q9GZT9)

>  <quantityMeasured>
pIC50

>  <relationOperator>
>

>  <valueObserved>
7.00

$$$$
>  <compound>
Cn1ccc(Cn2c3c(c(O)c(C(=O)NCC(=O)O)c2=O)CCOC3)n1

>  <target>
human HIF-PHD2 (Homo sapiens, UniProt Q9GZT9)

>  <quantityMeasured>
pIC50

>  <relationOperator>
=

>  <valueObserved>
7.26

$$$$
>  <compound>
Cc1cccc(C)c1-c1cccc(Cn2ncc3nc(-n4cc(C(=O)O)cn4)nc(O)c32)c1

>  <target>
human HIF-PHD2 (Homo sapiens, UniProt Q9GZT9)

>  <quantityMeasured>
pIC50

>  <relationOperator>
=

>  <valueObserved>
7.15

$$$$
>  <compound>
O=C(O)CNC(=O)c1c(O)c2cccc(-c3cccc(OC(F)(F)F)c3)c2oc1=O

>  <target>
human HIF-PHD2 (Homo sapiens, UniProt Q9GZT9)

>  <quantityMeasured>
pIC50

>  <relationOperator>
=

>  <valueObserved>
7.00

$$$$
>  <compound>
O=C(O)CNC(=O)c1c(O)c2c(n(Cc3ccc(F)cc3)c1=O)CCOC2

>  <target>
human HIF-PHD2 (Homo sapiens, UniProt Q9GZT9)

>  <quantityMeasured>
pIC50

>  <relationOperator>
=

>  <valueObserved>
7.86

$$$$
>  <compound>
O=C(O)CNC(=O)C1=C(O)c2cc(F)ccc2C2(CCOCC2)C1=O

>  <target>
human HIF-PHD2 (Homo sapiens, UniProt Q9GZT9)

>  <quantityMeasured>
pIC50

>  <relationOperator>
>

>  <valueObserved>
7.00

$$$$
>  <compound>
COc1ccccc1-c1cccc2c1C(=O)C(C(=O)NCC(=O)O)=C2O

>  <target>
human HIF-PHD2 (Homo sapiens, UniProt Q9GZT9)

>  <quantityMeasured>
pIC50

>  <relationOperator>
=

>  <valueObserved>
7.66

$$$$
>  <compound>
CN(C)c1cccc(-c2cnc3c(c2)c(O)c(C(=O)NCC(=O)O)c(=O)n3C)c1

>  <target>
human HIF-PHD2 (Homo sapiens, UniProt Q9GZT9)

>  <quantityMeasured>
pIC50

>  <relationOperator>
>

>  <valueObserved>
7.30

$$$$
>  <compound>
CC(C)(Cc1ccc2ccccc2c1)Cn1ncc2nc(-n3cc(C(=O)O)cn3)nc(O)c21

>  <target>
human HIF-PHD2 (Homo sapiens, UniProt Q9GZT9)

>  <quantityMeasured>
pIC50

>  <relationOperator>
=

>  <valueObserved>
6.96

$$$$
>  <compound>
CC1(Cn2nc(F)c3nc(-n4cc(C(=O)O)cn4)nc(O)c32)CCCCC1

>  <target>
human HIF-PHD2 (Homo sapiens, UniProt Q9GZT9)

>  <quantityMeasured>
pIC50

>  <relationOperator>
=

>  <valueObserved>
7.32

$$$$
>  <compound>
CC[C@@H](c1ccc(Cl)c(Cl)c1)n1nc(C)c2nc(-n3cc(C(=O)O)cn3)nc(O)c21

>  <target>
human HIF-PHD2 (Homo sapiens, UniProt Q9GZT9)

>  <quantityMeasured>
pIC50

>  <relationOperator>
=

>  <valueObserved>
7.19

$$$$
>  <compound>
COc1cccc(-c2cccc3c(O)c(C(=O)NCC(=O)O)c(=O)oc23)c1

>  <target>
human HIF-PHD2 (Homo sapiens, UniProt Q9GZT9)

>  <quantityMeasured>
pIC50

>  <relationOperator>
=

>  <valueObserved>
6.82

$$$$
>  <compound>
COc1ccccc1-c1ncc2c(O)c(C(=O)NCC(=O)O)c(=O)n(C)c2n1

>  <target>
human HIF-PHD2 (Homo sapiens, UniProt Q9GZT9)

>  <quantityMeasured>
pIC50

>  <relationOperator>
=

>  <valueObserved>
8.62

$$$$
>  <compound>
CCC(c1ccc(Cl)cc1F)n1ncc2nc(-n3cc(C(=O)O)cn3)nc(O)c21 (single isomer, unassigned)

>  <target>
human HIF-PHD2 (Homo sapiens, UniProt Q9GZT9)

>  <quantityMeasured>
pIC50

>  <relationOperator>
=

>  <valueObserved>
7.62

$$$$
>  <compound>
Cc1ccc(C(C)n2ncc3nc(-n4cc(C(=O)O)cn4)nc(O)c32)cc1F (single isomer, unassigned)

>  <target>
human HIF-PHD2 (Homo sapiens, UniProt Q9GZT9)

>  <quantityMeasured>
pIC50

>  <relationOperator>
=

>  <valueObserved>
7.26

$$$$
>  <compound>
CC(C)C(c1ccc(F)cc1)n1ncc2nc(-n3cc(C(=O)O)cn3)nc(O)c21 (stereo not drawn)

>  <target>
human HIF-PHD2 (Homo sapiens, UniProt Q9GZT9)

>  <quantityMeasured>
pIC50

>  <relationOperator>
=

>  <valueObserved>
6.85

$$$$
>  <compound>
CC(NC(=O)c1cnc(C(=O)NCCC(=O)O)nc1O)c1ccc(-c2ccc(F)cc2)cc1 (racemic)

>  <target>
human HIF-PHD2 (Homo sapiens, UniProt Q9GZT9)

>  <quantityMeasured>
pIC50

>  <relationOperator>
=

>  <valueObserved>
8.60

$$$$
>  <compound>
COc1ccc(Cn2c3c(c(O)c(C(=O)NCC(=O)O)c2=O)COC3)cn1

>  <target>
human HIF-PHD2 (Homo sapiens, UniProt Q9GZT9)

>  <quantityMeasured>
pIC50

>  <relationOperator>
=

>  <valueObserved>
8.17

$$$$
>  <compound>
O=C(O)c1cnn(-c2nc(O)c3c(cnn3Cc3ccc(-c4ccccc4)cc3F)n2)c1

>  <target>
human HIF-PHD2 (Homo sapiens, UniProt Q9GZT9)

>  <quantityMeasured>
pIC50

>  <relationOperator>
=

>  <valueObserved>
8.21

$$$$
>  <compound>
Cn1c(=O)c(C(=O)NCC(=O)O)c(O)c2cnc(-c3cccc4ncccc34)nc21

>  <target>
human HIF-PHD2 (Homo sapiens, UniProt Q9GZT9)

>  <quantityMeasured>
pIC50

>  <relationOperator>
=

>  <valueObserved>
8.62

$$$$
